Hello, the source for this data is paper PMC6001238, in case you need it.

# reported IC50; entries follow
Test system: Murine leukemia (L1210) cells
assay: Cytostatic activity, L1210 cell proliferation
Assay type: cell-based
assay conditions: mean ± SD of three experiments; highest concentration tested 250 µM; 2 days; read-out: Toxicity (IC50) L1210

{"compound": "CNC(CC(C)C)C(=O)NC1C(=O)NC(CC(N)=O)C(=O)NC2C(=O)NC3C(=O)NC(C(=O)NC(C(=O)NCC(=O)Nc4ccc(O)cc4)c4cc(O)cc(O)c4-c4cc3ccc4O)C(O)c3ccc(c(Cl)c3)Oc3cc2cc(c3OC2OC(CO)C(O)C(O)C2OC2CC(C)(N)C(O)C(C)O2)Oc2ccc(cc2Cl)C1O (centres unmarked)", "IC50": "> 250 µM"}
{"compound": "CNC(CC(C)C)C(=O)NC1C(=O)NC(CC(N)=O)C(=O)NC2C(=O)NC3C(=O)NC(C(=O)NC(C(=O)NCCCNC(=O)c4ccc5ccccc5n4)c4cc(O)cc(O)c4-c4cc3ccc4O)C(O)c3ccc(c(Cl)c3)Oc3cc2cc(c3OC2OC(CO)C(O)C(O)C2OC2CC(C)(N)C(O)C(C)O2)Oc2ccc(cc2Cl)C1O (centres unmarked)", "IC50": "> 250 µM"}
